// provenance: patent US20050020492A1

biological target: T1, human MCH-1R (human, UniProt Q99705 1-353); experiment: SPA, displacement of [125I]-[Phe13,Tyr19]-hMCH, CHO/MCH-1R membranes
T1 construct: Function: 293AEQ17/MCH-1R cells; also called hMCH-1R
T1 sequence (Q99705 whole entry): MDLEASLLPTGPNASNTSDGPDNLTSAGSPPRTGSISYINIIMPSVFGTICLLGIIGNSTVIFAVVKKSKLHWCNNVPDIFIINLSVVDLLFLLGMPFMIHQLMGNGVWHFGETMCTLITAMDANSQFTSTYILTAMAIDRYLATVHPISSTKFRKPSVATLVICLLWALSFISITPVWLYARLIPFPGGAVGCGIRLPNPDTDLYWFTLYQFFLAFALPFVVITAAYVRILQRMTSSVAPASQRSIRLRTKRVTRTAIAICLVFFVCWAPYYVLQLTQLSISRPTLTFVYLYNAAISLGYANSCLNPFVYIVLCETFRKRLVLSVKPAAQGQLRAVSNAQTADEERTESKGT
Positions of bridges follow the written chain, without caps; N, C: chain ends.
QUANTITY MEASURED: pIC50
pIC50 here is simply -log10 of the concentration when that concentration is written in mol/L.

Task: Name the reported pIC50 value associated with the binder Ac-RCMLGRVYRPC-NH2 (disulfide 2-11 (inferred), also called ID; NO; parent compound) [Ac-hMCH(6-16)-NH2]
Output: 8.85
